- Tested on: K562
- protocol_description: In vitro inhibitory activity against K562 human leukemia cell line
- Assay type: functional, cell-based
measure: IC50 (µM)
Supply the numeric figure in µM, leaving out any unit text.

Known results for compounds:
compound=C=C1CCC[C@]2(C)C[C@H]3OC(=O)[C@@H](CNCc4ccccc4)[C@H]3C[C@@H]12 measure=IC50 assay_value=15
compound="C=C1CCC[C@]2(C)C[C@H]3OC(=O)[C@@H](CN(C)C(C)C(O)c4ccccc4)[C@H]3C[C@@H]12 (some centres undefined)" measure=IC50 assay_value=3
compound=CCN(CC)C[C@@H]1C(=O)O[C@@H]2C[C@@]3(C)CCC[C@H](C)C3=C[C@H]12 measure=IC50 assay_value=0.7

Please turn your attention to the following entry.
Form field - read-out: IC50; system: K562; submitted item: "C=C1CCC[C@]2(C)C[C@H]3OC(=O)[C@@H](CNC)[C@H]3C[C@@H]12"
24

----------
- protocol_description: Inhibitory activity against FF1 normal skin cells
- Type: functional
- study_conditions: Homo sapiens, read-out: ID50 (the source's name)
# maps each entry to its pIC50
Units for pIC50: none; it is -log10 of a concentration expressed in mol/L.

compound=C=C1CCC[C@]2(C)C[C@H]3OC(=O)[C@@H](CN(CC)CC)[C@H]3C[C@@H]12 assay_value=6.00

Could you now look at the following compound, please?
Consider the compound C=C1C(=O)O[C@@H]2C[C@@]3(C)CCCC(=C)[C@@H]3C[C@H]12 [ISOALANTOLACTONE] and give its measured pIC50.
5.96

----------
The entries below come with measured IC50 values attached.
- Test system: K562
- protocol_description: In vitro inhibitory activity against K562 human leukemia cell line
- Format: functional, cell-based
Unit nM implied. Number only.

Need IC50 of "C[C@H]1CCC[C@]2(C)C[C@H]3OC(=O)[C@@H](CN(C)C)[C@H]3C=C12" , thanks.
2000

Quick check: IC50 of "C=C1C(=O)O[C@@H]2C[C@@]3(C)CCCC(=C)[C@@H]3C[C@H]12" ?
1200

Which measured IC50 value corresponds to "C=C1CCC[C@]2(C)C[C@H]3OC(=O)[C@@H](CN(CC)CC)[C@H]3C[C@@H]12" ?
2000

Look at this molecule and give its reported IC50. "C=C1CCC[C@]2(C)C[C@H]3OC(=O)[C@@H](CN4CCOCC4)[C@H]3C[C@@H]12"
5000

----------
- Tested on: COLO
- protocol_description: Inhibitory activity against COLO skin melanoma cell line
- Format: functional
- study_conditions: Homo sapiens, read-out: ID50 (the source's name)
measure: pIC50
API: returns pIC50 as number; meaning -log10 of concentration in mol/L.

smi=C=C1C(=O)O[C@@H]2C[C@@]3(C)CCCC(=C)[C@@H]3C[C@H]12 assay_value=5.68

Let us move to another entry and its pIC50.
// map "C=C1CCC[C@]2(C)C[C@H]3OC(=O)[C@@H](CN(CC)CC)[C@H]3C[C@@H]12" to recorded pIC50 (system: COLO)
5.46

----------
- Test system: K562
- protocol_description: Effect on cell cycle distribution of K562 cells following treatment of 10 x IC50 for 16 hours and c.v. value was reported.
- Type: functional, Homo sapiens
measure: c.v
I only need the number, thanks.

Examples from the recorded data:
smi=C=C1C(=O)O[C@@H]2C[C@@]3(C)CCCC(=C)[C@@H]3C[C@H]12 measure=c.v assay_value=3.2
smi=C=C1C(=O)O[C@@H]2C[C@@]3(C)CCC[C@H](C)C3=C[C@H]12 measure=c.v assay_value=3.4
smi=CCN(CC)C[C@@H]1C(=O)O[C@@H]2C[C@@]3(C)CCC[C@H](C)C3=C[C@H]12 measure=c.v assay_value=7

Next:
Please look up its c.v: "C=C1CCC[C@]2(C)C[C@H]3OC(=O)[C@@H](CN(CC)CC)[C@H]3C[C@@H]12"
4.3
